Experiment: chemical genetic growth profiling, strain panel (AID 1159580);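 further: tested at 20 µM; growth read once vehicle control cultures reached saturation at 30 °C; 1 = growth at the plate median or of vehicle wells; lower values mean less growth of the strain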
Conditions: S. cerevisiae deletion strains, growth OD, locus YBR231C, strain swc5, active compounds read low
Among all 5,500 compounds or so, about 2,000 (36%) were called active. Inconclusive results (about 18%) are left out. The list shows a part of the results.
reported_metric: normalized growth

> print(dat)
                                   molecule    reported.metric  endpoint.result
1  CCC1(c2ccc(N)cc2)CCC(=O)NC1=O (stereo not drawn)  normalized growth            0.943
2  COC(=O)C1[C@H]2C[C@H]3c4[nH]c5ccccc5c4CCN3C[C@@H]2CC[C@@H]1O (stereo partly drawn)  normalized growth            0.965
3  CNc1ccccc1C(=O)N1CCc2c([nH]c3ccccc23)C1=O  normalized growth            0.996
4                CCC1(c2ccccc2)C(=O)NCNC1=O  normalized growth                1
5  CC1(C)S[C@@H]2[C@H](NC(=O)[C@H](NC(=O)N3CCNC3=O)c3ccccc3)C(=O)N2C1C(=O)O (stereo partly drawn)  normalized growth            0.984
6          OC(CCN1CCCCC1)(c1ccccc1)c1ccccc1  normalized growth             1.01
7  COc1ccc(-c2cc(=O)c3c(O)cc(OC)c(OC)c3o2)c(OC)c1  normalized growth            0.966
8                          O=C(Cc1ccccc1)NO  normalized growth            0.974

Data origin, for the record: PubChem BioAssay AID1159580
